- Assayed Target: Savinase (Lederbergia lenta)
- Construct: Novozymes A/S
- Experimental Details: biochemical
- Measurement Context: Example 2, acids; 0.1 M phosphate buffer pH 7.5, 25° C., substrate SAAPFpNA 0.01-2 mM, enzyme ≈1×10^−8 M; read-out: Ki
In this section we review reported log10(Ki) values for a set of molecules.
On a log10 scale: recorded Ki, unit mM.

Examples with answers:
O=C(O)CCc1ccc(Cl)cc1 : 1.00
Nc1ccc(C(=O)O)cc1 : 1.91
O=C(O)c1cccc(F)c1 : 1.23
O=C(O)CCc1cccc(Cl)c1 : 0.70

// query Could you tell me which log10(Ki) is on file for Nc1cccc(C(=O)O)c1 ?
// result 1.63

// query Another: O=C(O)c1cc(O)cc(O)c1 [3,5-dihydroxybenzoic acid]
// result 1.88

* * *

- Assayed Target: Savinase (Lederbergia lenta, UniProt P29600)
- Construct: Novozymes A/S
- Sequence (P29600 1-269): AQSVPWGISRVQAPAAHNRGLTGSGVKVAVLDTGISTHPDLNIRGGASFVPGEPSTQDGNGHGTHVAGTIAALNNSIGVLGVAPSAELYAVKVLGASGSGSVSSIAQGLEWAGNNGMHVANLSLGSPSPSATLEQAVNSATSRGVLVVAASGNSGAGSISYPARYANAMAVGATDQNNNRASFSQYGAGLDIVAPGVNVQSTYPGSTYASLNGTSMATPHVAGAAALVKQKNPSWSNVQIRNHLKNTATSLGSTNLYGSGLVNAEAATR
- Experimental Details: biochemical
- Measurement Context: Example 1; 0.1 M phosphate buffer pH 7.5, 25° C., substrate SAAPFpNA 0.01-2 mM, enzyme ≈1×10^−8 M; read-out: Ki
Value Type: Ki (mM)
Entry rule: numbers only, all in mM.

Study these solved cases before continuing.
O=C(O)c1cc(Cl)cc(Cl)c1 [3,5-dichorobenzoic acid] : 2
O=C(O)c1ccc(C(=O)O)cc1 [Terephtalic acid (4-carboxybenzoic acid)] : 99
O=Cc1ccc(C(=O)O)cc1 [4-formylbenzoic acid] : 25

For the next question, use this compound.
// query Would you kindly share the measured Ki for O=C(O)CCc1ccccc1 [Phenylpropionic acid] ?
// result 9

* * *

- Assayed Target: Savinase (Lederbergia lenta, UniProt P29600)
- Construct: Novozymes A/S
- Sequence (P29600 1-269): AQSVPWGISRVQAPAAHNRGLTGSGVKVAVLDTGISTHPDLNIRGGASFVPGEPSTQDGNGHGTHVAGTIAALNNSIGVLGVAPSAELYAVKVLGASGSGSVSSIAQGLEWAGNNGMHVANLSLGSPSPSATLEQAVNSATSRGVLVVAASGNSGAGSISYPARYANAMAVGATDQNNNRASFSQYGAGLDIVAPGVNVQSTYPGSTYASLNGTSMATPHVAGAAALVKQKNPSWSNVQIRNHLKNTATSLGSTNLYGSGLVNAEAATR
- Experimental Details: biochemical
- Measurement Context: Example 3, aldehydes; 0.1 M phosphate buffer pH 7.5, 25° C., substrate SAAPFpNA 0.01-2 mM, enzyme ≈1×10^−8 M; read-out: Ki
Value Type: Ki (mM)
Unit mM implied. Number only.

// query Could you tell me which Ki is on file for O=Cc1cccc(O)c1 [3-hydroxybenzaldehyde] ?
// result 16

* * *

- Assayed Target: Savinase (Lederbergia lenta, UniProt P29600)
- Construct: Novozymes A/S
- Sequence (P29600 1-269): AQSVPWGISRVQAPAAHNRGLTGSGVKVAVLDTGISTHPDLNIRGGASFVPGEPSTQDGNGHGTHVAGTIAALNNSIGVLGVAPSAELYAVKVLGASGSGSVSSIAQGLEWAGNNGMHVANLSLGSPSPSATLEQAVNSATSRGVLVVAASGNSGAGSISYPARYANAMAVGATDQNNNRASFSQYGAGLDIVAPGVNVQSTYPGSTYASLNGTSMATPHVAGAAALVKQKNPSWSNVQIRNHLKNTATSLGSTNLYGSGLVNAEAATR
- Experimental Details: biochemical
- Measurement Context: Example 2, acids; 0.1 M phosphate buffer pH 7.5, 25° C., substrate SAAPFpNA 0.01-2 mM, enzyme ≈1×10^−8 M; read-out: Ki
# key: entry, value: pKi
Scale: negative log10 of molar concentration, which is what pKi denotes.

Solved entries:
O=C(O)c1ccccc1Cl : 1.80
O=C(O)c1cccc(I)c1 : 2.05
O=C(O)Cc1ccc(Cl)cc1 : 1.96

// query For the compound shown here, O=C(O)c1cccc(Br)c1 , give the reported pKi.
// result 2.22

// query Follow-up entry: O=C(O)c1cccc(O)c1 [3-hydroxybenzoic acid]
// result 1.54

// query Would you mind doing O=C(O)c1cccc(CCl)c1 as well?
// result 1.49

// query And what about the compound O=Cc1cccc(C(=O)O)c1 ?
// result 1.57

// query Proceed to O=C(O)CCCc1ccccc1
// result 1.72

// query Check O=C(O)c1cccc([N+](=O)[O-])c1 too.
// result 2.05
